- assay_name: NCI Yeast Anticancer Drug Screen. Data for the mlh1 rad18 strain (AID 175)
- measurement_setup: S. cerevisiae mlh1 rad18 strain growth inhibition; at 5.0 µM (retest, dose inferred, filed as 0.5)
About 79,000 compounds went through this panel and 15% of them were active in at least one assay; those are over-represented in the sample as a whole. Calls of active or inactive are those of the source. Rule as the data show it: active = growth inhibition above about 70%; inactive = the rest.
One label from this list, please: Y (active), N (inactive)

// outcome(item) with item = CCS(=O)(=O)c1ccc(/C=C/C=N/NC(=S)NCC(C)C)cc1
N

Note, next up: CC1=C(SCCO)C(=O)c2ccccc2C1=O
N

Note, next up: CC(=O)SCCC[Si](C)(C)CCCSC(C)=O
N

Note, next up: O=C(CCCN1CCC(O)(c2ccc(Cl)cc2)CC1)c1ccc(F)cc1
N

Note, next up: O=C1C=CC(=Nc2ccc3c(c2)Cc2cc(NC(=O)C(F)(F)F)ccc2-3)O1
Y

Note, next up: CCCS(=O)(=O)Nc1ccc(Nc2c3ccccc3nc3ccccc23)c(OC)c1
N

Note, next up: [N-]=N[N+]#I1OC(C(F)(F)F)(C(F)(F)F)c2ccccc21
N

Note, next up: c1ccc2c(c1)Oc1cccc3cccc-2c13
Y

Note, next up: Oc1ccc2ccccc2c1C(c1ccc(Cl)cc1)c1c(O)ccc2ccccc12
Y

Note, next up: N#Cc1ccc(C2NN=CC23C(=O)c2ccccc2OC3c2ccccc2)cc1 (centres undefined)
N

Note, next up: CSc1nc(=S)[nH]c2c1c(C)nn2-c1ccccc1
N

Note, next up: COc1ccc2nc3c([N+](=O)[O-])ccc(NCCN(C)C)c3c(NCCN(C)C)c2c1
N

Note, next up: CCOC(=O)c1cc([N+](=O)[O-])cc([N+](=O)[O-])c1Sc1ncnc2nc[nH]c12
N

Note, next up: C/C(=N/NC(=S)N1CCCCCC1)c1cccc(/C(C)=N\NC(=S)N2CCCCCC2)n1
N

Note, next up: C=C1CC(Cn2cc(Br)c(=O)[nH]c2=O)(c2ccc(-c3ccccc3)cc2)OC1=O (centres undefined)
N

Note, next up: Nc1nc(-c2cccnc2)cc(-c2cc(-c3cccnc3)nc(N)n2)n1
N

Note, next up: COC(=O)C1=C(C(=O)OC)C2(C)C=CC1O2 (centres undefined)
N

Note, next up: O=C1CSc2cc([N+](=O)[O-])ccc2N1
N

Note, next up: NC1=NS(=O)(=O)N=C(N)C1=Cc1ccc([N+](=O)[O-])o1
N

Note, next up: CC(C)OC(=O)Oc1ccccc1OC(=O)OC(C)C
N

Note, next up: O=[N+]([O-])c1cc(CCl)ccc1CCl
N

Note, next up: Cc1c(Cl)ccc2c1S(=O)(=O)c1cccc(Cl)c1-2
Y

Note, next up: CCCCCCCCCCCCCC[N+](C)(CC(=O)[O-])Cc1ccccc1 (centres undefined)
N

Note, next up: O=C(Nc1ccccc1)C(=O)C(C(=O)c1ccccc1)C(c1ccccc1)c1ccccc1 (centres undefined)
N

* * *

- assay_name: NCI Yeast Anticancer Drug Screen. Data for the wt2 strain (AID 169);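 also: 0% = growth of vehicle-treated yeast cultures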
- measurement_setup: S. cerevisiae wt2 strain growth inhibition; at 11.0 µM; active compounds read high
The panel holds about 79,000 compounds, 15% with a hit somewhere; the sample as a whole holds those more often.
Would you mind telling me the reported growth inhibition of each entry?
Give the quantity in %, number only.

Which growth inhibition reading was recorded for the molecule Cc1cc(N=Nc2ccc(S(=O)(=O)[O-])cc2)cc(C(=O)[O-])c1[O-].NC1CCCCC1N.[Na+].[Pt+4] ?
98

Note, next up: CC1(C)[C@@H]2CC[C@]1(C)[C@H](OC(=O)CSC#N)C2
25

Note, next up: O=C(CCCN1CCC2(CC1)CC(=O)N(N1CCCCCC1)C2=O)c1ccc(F)cc1
41

Note, next up: CCc1ccc(NS(=O)(=O)c2ccccc2)c([N+](=O)[O-])c1
3

Note, next up: O=C(NCCCCNCCCNC(=O)c1cc(-c2ccccc2)nc2ccccc12)c1cc(-c2ccccc2)nc2ccccc12
-2

Note, next up: C=C(CN(C)C)C(=O)c1cc(C)ccc1C
75

Note, next up: CCCCCCCCCCCC(=O)N(C)C
-11

Note, next up: CCCCCCc1cc(C(=O)OC/C(C)=N/NC(N)=O)c2ccccc2n1
0

Note, next up: O=C(Cc1csc2[n+]1C(=O)/C(=C/c1ccc(Cl)cc1)S2)Nc1ccccc1
7

Note, next up: CCC(=O)Oc1c(Cl)cc(Cl)c2ccccc12
-5

Note, next up: CN(C)CCOc1ccc2c(c1)C/C(=C/c1ncc([N+](=O)[O-])n1C)C2=O
-30

Note, next up: CCN(CC)CCN1C(=O)c2cccc3cc(OC)cc(c23)C1=O
-38

Note, next up: C/C(=N\NC(=S)SCc1ccccc1)c1ccccn1
72

Note, next up: CN(Cc1cnc2nc(N)nc(N)c2n1)c1ccc(C(=O)N[C@@H](CCC(=O)O)C(=O)O)cc1
-4

Note, next up: O=C1C2C=CC1C1C(=O)OC(=O)C21 (stereo not given)
-35

Note, next up: CCCCOC(=O)N[C@H]1CCc2cc(OC)c(OC)c(OC)c2-c2ccc(SC)c(=O)cc21
-1

Note, next up: CN(N=O)N1C(=O)SCC(c2ccccc2)(c2ccccc2)C1=O
-1

Note, next up: c1ccc2c(c1)-c1nc3ccccc3cc1C2N1CCOCC1 (stereo not given)
2

Note, next up: COC1C=COC2(C)Oc3c(C)c(O)c4c(c3C2=O)/C(=N/C2CCC(O)OC2C)C=C(NC(=O)/C(C)=C\C(=O)C2CC2C(O)C(C)C(O)C(C)C(OC(C)=O)C1C)C4=O (stereo not given)
0

Note, next up: CC1(C)C(=O)OC(n2cc(F)c(=O)[nH]c2=O)C1=O (stereo not given)
17

Note, next up: Nc1ncncc1C(C1=C(O)COC1=O)C1=C(O)COC1=O
-1

Note, next up: O=C1C2C(C(=O)N1c1ccc(OCc3ccccc3)cc1)C1c3ccccc3C2C2CCCCN21 (stereo not given)
-6

Note, next up: CCOC(=O)c1cc(-c2ccc(Cl)cc2)c([N+](=O)[O-])n1C
13

Note, next up: COc1ccc(OC)c2cc3ccccc3cc12
-16

Note, next up: O=C1C=CC(=O)c2c(O)c(Nc3ccc(OC(F)(F)F)cc3)c(Cl)c(O)c21
-6

Note, next up: CC(=O)N/N=C/C(C)(C)C(C)(C)/C=N/NC(C)=O
7

Note, next up: CCNc1nnc(CSc2nc(-c3ccccc3)c(-c3ccccc3)[nH]2)s1
-37

Note, next up: O=[N+]([O-])C(=C(Sc1ccccc1)Sc1ccccc1)C(Cl)=C(Cl)Cl
39

Note, next up: Oc1c(Br)cc(Br)cc1C1CCCCC1
-15

Note, next up: OCC(Cn1cncn1)(c1ccc(F)cc1F)n1cncn1 (stereo not given)
64

Note, next up: C=CCC1=C(C)C(OC(=O)/C=C/c2ccccc2)CC1=O (stereo not given)
-8

Note, next up: CCCC/C=C/C(CC)(C(=O)OCC)C(=O)OCC
-5

Note, next up: CC1=C(SCCO)C(=O)c2ccccc2C1=O
3

Note, next up: CC/C(=C(\c1ccccc1)c1ccc(OCCN(C)C)cc1)c1ccccc1
55

Note, next up: O=C1c2ccccc2-c2nc3ccccc3nc21
-10

Note, next up: O=S(=O)(CCCl)c1ccccc1Cl
64

Note, next up: Oc1cccc2c(Cl)ccnc12
98

Note, next up: CC(C)/C(Cl)=N\OC(=O)Nc1ccc(F)cc1
3

Note, next up: CCN(CC)C(C)(C)C(=O)/C=C/c1ccccc1
-1

Note, next up: C(CCSC1=NCCN1)CSC1=NCCN1 (tested in a mixture with another compound)
63

Note, next up: Cc1ccc(S(=O)(=O)NNC(=S)Nc2cccc3ccccc23)cc1
2

Note, next up: CCN(CC)[P+](c1ccccc1O)(N(CC)CC)N(CC)CC
-19

Note, next up: COC1=CC(=O)C2C(C1=O)C(c1ccc(Cl)cc1)[C@@H]2C (stereo not given in full)
94

Note, next up: Nc1nc(Cl)c(Cl)c(Cl)n1
17

Note, next up: COC(=O)c1cc(-c2ccc(C)cc2)[nH]c(=O)c1C#N
-2
